TESTED_ON: HCV polymerase (NS5B) type 1b (Hepatitis C virus genotype 1b, UniProt P26663)
Construct: a region encoding NS5B (J Virol 1991 March, 65(3), 1105-13, 544 amino acids after deletion of 47 amino acids on the C-terminal); 6xHis (C); made in house; host or cells: Escherichia coli
Sequence (P26663 2420-2963): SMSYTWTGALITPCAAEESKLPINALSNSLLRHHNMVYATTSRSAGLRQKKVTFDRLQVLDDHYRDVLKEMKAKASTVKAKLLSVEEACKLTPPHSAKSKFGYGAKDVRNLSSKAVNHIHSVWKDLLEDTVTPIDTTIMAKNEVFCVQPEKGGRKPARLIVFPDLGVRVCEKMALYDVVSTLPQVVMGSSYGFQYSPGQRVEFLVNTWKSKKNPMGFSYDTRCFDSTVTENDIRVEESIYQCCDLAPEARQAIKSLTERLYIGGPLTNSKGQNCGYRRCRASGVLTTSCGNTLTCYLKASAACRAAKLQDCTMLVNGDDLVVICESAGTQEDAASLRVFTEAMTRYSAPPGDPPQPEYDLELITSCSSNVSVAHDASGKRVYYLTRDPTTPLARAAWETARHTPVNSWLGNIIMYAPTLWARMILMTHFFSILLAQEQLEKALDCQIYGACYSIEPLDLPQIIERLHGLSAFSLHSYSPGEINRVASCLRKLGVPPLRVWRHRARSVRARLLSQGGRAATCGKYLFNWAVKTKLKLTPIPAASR
TEST_SUMMARY: Assay of enzyme (HCV polymerase) inhibitory activity, type 1b enzyme
Assay type: biochemical, HCV BK strain (type 1b)
CONDITIONS_USED: HCV polymerase inhibitory activity (IC50), 1b, type 1b enzyme 0.5 μg/ml, 25° C., 60 min
pIC50: −log10 of the molar value. Structures can show the parent of a compound that is named as a salt.
ATTRIBUTE_MEASURED: pIC50

compound="CC(C)c1ccc(S(=O)(=O)N2CCNCC2C(=O)NCc2ccc(C(F)(F)F)cc2)cc1 (stereo not drawn) [Example 15, hydrochloride]" attribute_measured=pIC50 reading="< 6.00"
compound=CCCc1ccc(S(=O)(=O)N2CCN(c3nc(C(=O)O)c(CO)s3)C[C@@H]2C(=O)NCc2ccc(C(C)C)cc2)cc1 attribute_measured=pIC50 reading="> 7.00"
compound=CC(=O)N1CCN(S(=O)(=O)c2ccc(C(C)C)cc2)[C@@H](C(=O)NCCCN2CCOCC2)C1 attribute_measured=pIC50 reading="< 6.00"
compound=CC(C)c1ccc(CNC(=O)[C@H]2CN(C(=O)CCNC(=O)OC(C)(C)C)CCN2S(=O)(=O)c2ccc(C(F)(F)F)cc2)cc1 attribute_measured=pIC50 reading="6.00 to 7.00"
compound=CCCc1ccc(CNC(=O)[C@H]2CN(c3cnc(C(=O)O)cn3)CCN2S(=O)(=O)c2ccc(OC(F)(F)F)cc2)c(Cl)c1 attribute_measured=pIC50 reading="> 7.00"
compound=CC(C)c1ccc(CNC(=O)[C@H]2CN(C(=O)Nc3cccc(Cl)c3)CCN2S(=O)(=O)c2ccc(C(F)(F)F)cc2)cc1 attribute_measured=pIC50 reading="6.00 to 7.00"
compound="COC(=O)N1CCN(S(=O)(=O)c2ccc(C(C)C)cc2)C(C(=O)NCc2ccc(C(F)(F)F)cc2)C1 (stereo not drawn)" attribute_measured=pIC50 reading="< 6.00"
compound=Cc1nc(N2CCN(S(=O)(=O)c3ccc(C(F)(F)F)cc3)[C@@H](C(=O)NCc3ccc(C(C)C)cc3)C2)sc1C(=O)OC(C)(C)C attribute_measured=pIC50 reading="< 6.00"
compound=COC(=O)c1sc(N2CCN(S(=O)(=O)c3ccc(C(F)(F)F)cc3)[C@@H](C(=O)NCc3ccc(C(C)C)cc3)C2)nc1C attribute_measured=pIC50 reading="> 7.00"
compound=CC(=O)N1CCN(S(=O)(=O)c2ccc(C(C)C)cc2)[C@@H](C(=O)NCCc2cccc(Cl)c2)C1 attribute_measured=pIC50 reading="< 6.00"
compound="CC(=O)N1CCN(S(=O)(=O)c2ccc(C(C)C)cc2)C(C(=O)NCc2ccc(C(=O)O)cc2)C1 (stereo not drawn)" attribute_measured=pIC50 reading="< 6.00"
compound=CN1CCN(Cc2cnc(N3CCN(S(=O)(=O)c4ccc(OC(F)(F)F)cc4)[C@@H](C(=O)NCc4ccc(C(C)(C)C)cc4)C3)cn2)CC1 attribute_measured=pIC50 reading="> 7.00"
compound=O=C(O)c1cnc(N2CCN(S(=O)(=O)c3ccc(OC(F)(F)F)cc3)[C@@H](C(=O)NCc3ccc(OC(F)(F)F)cc3)C2)cn1 attribute_measured=pIC50 reading="> 7.00"
compound=CCCc1ccc(S(=O)(=O)N2CCN(c3nc(C)c(C(=O)OC(C)(C)C)s3)C[C@@H]2C(=O)NCc2ccc(C(C)C)cc2)cc1 attribute_measured=pIC50 reading="6.00 to 7.00"
compound=CCCc1ccc(S(=O)(=O)N2CCN(C(=O)Nc3cccc(OCC(=O)OCC)c3)C[C@@H]2C(=O)NCc2ccc(C(C)C)cc2)cc1 attribute_measured=pIC50 reading="> 7.00"
compound=Cc1nc(N2CCN(S(=O)(=O)c3ccc(OC(F)(F)F)cc3)[C@@H](C(=O)NCc3ccc(C(C)C)cc3)C2)sc1C(=O)N(C)C attribute_measured=pIC50 reading="> 7.00"
compound="CC(=O)N1CCN(S(=O)(=O)c2ccc(N)cc2)C(C(=O)NCc2ccc(C(F)(F)F)cc2)C1 (stereo not drawn) [Example 93, hydrochloride]" attribute_measured=pIC50 reading="< 6.00"
compound=CC(C)c1ccc(CNC(=O)[C@H]2CN(c3cnc(C(N)=O)cn3)CCN2S(=O)(=O)c2ccc(C(F)(F)F)cc2)cc1 attribute_measured=pIC50 reading="> 7.00"

====

TESTED_ON: HCV polymerase (NS5B) type 1b (Hepatitis C virus genotype 1b)
Construct: a region encoding NS5B (J Virol 1991 March, 65(3), 1105-13, 544 amino acids after deletion of 47 amino acids on the C-terminal); 6xHis (C); made in house; host or cells: Escherichia coli
TEST_SUMMARY: Assay of enzyme (HCV polymerase) inhibitory activity, type 1b enzyme
Type: biochemical, HCV BK strain (type 1b)
CONDITIONS_USED: HCV polymerase inhibitory activity (IC50), 1b, type 1b enzyme 0.5 μg/ml, 25° C., 60 min
Structures can show the parent of a compound that is named as a salt.
ATTRIBUTE_MEASURED: IC50

molecule="CCCc1ccc(CNC(=O)[C@H]2CN(c3cnc4cncnc4n3)CCN2S(=O)(=O)c2ccc(OC(F)(F)F)cc2)cc1 [Example 574]" reading="< 100 nM"
molecule="COc1cccc(CC(=O)N2CCN(S(=O)(=O)c3ccc(C(F)(F)F)cc3)[C@@H](C(=O)NCc3ccc(C(C)C)cc3)C2)c1 [Example 268]" reading="100 to 1000 nM"
molecule="COc1ccc(S(=O)(=O)N2CCN(C(C)=O)C[C@@H]2C(=O)NCc2ccc(C(C)C)cc2)cc1Cl [Example 216]" reading="100 to 1000 nM"
molecule="CC(=O)N1CCN(S(=O)(=O)c2ccc(C(C)C)cc2)[C@@H](C(=O)NCc2ccc(C3(CO)CC3)cc2)C1 [Example 234]" reading="> 1000 nM"
molecule="CC(=O)N1CCN(S(=O)(=O)c2ccc(CCC(=O)O)s2)[C@@H](C(=O)NCc2ccc(C(C)C)cc2)C1 [Example 283]" reading="> 1000 nM"
molecule="CCCn1ccc(CNC(=O)[C@H]2CN(C(C)=O)CCN2S(=O)(=O)c2ccc(OC(F)(F)F)cc2)cc1=O [Example 634]" reading="> 1000 nM"
molecule="CN(C)c1ccc(CNC(=O)C2CN(C(=O)Cc3ccccn3)CCN2S(=O)(=O)c2ccc(I)cc2)cc1 (stereo not drawn) [Example 153]" reading="> 1000 nM"
molecule="COc1ccc(S(=O)(=O)N2CCN(C(C)=O)C[C@@H]2C(=O)NCc2ccc(C(C)C)cc2)cc1C1CCCC1 [Example 241]" reading="100 to 1000 nM"
molecule="CC(=O)N1CCN(S(=O)(=O)c2ccc(C(C)C)cc2)C(C(=O)NCc2ccc(N3CCN(C)CC3)cc2)C1 (stereo not drawn) [Example 81]" reading="> 1000 nM"
molecule="CCCc1ccc(CNC(=O)[C@H]2CN(C(=O)Nc3nncs3)CCN2S(=O)(=O)c2ccc(OC(F)(F)F)cc2)cc1 [Example 437]" reading="< 100 nM"
molecule="CC(=O)N1CCN(S(=O)(=O)c2ccc(C(C)C)cc2)C(C(=O)NCc2ccccc2F)C1 (stereo not drawn) [Example 67]" reading="> 1000 nM"
molecule="CC(C)c1ccc(CNC(=O)[C@H]2CN(C(=O)CCCC(=O)O)CCN2S(=O)(=O)c2ccc(C(F)(F)F)cc2)cc1 [Example 190]" reading="100 to 1000 nM"
molecule="CN(C)c1ccc(CNC(=O)C2CNCCN2S(=O)(=O)c2ccc(I)cc2)cc1 (stereo not drawn) [Example 84, hydrochloride]" reading="> 1000 nM"
molecule="CCC(F)(F)c1ccc(CNC(=O)[C@H]2CN(c3nc(C)ns3)CCN2S(=O)(=O)c2ccc(OC(F)(F)F)cc2)cc1 [Example 576]" reading="< 100 nM"
molecule="CN(C)c1ccc(CNC(=O)C2CN(C(=O)CNCc3ccccc3)CCN2S(=O)(=O)c2ccc(I)cc2)cc1 (stereo not drawn) [Example 105]" reading="> 1000 nM"
molecule="CN(C)c1ccc(CNC(=O)[C@H]2CNCCN2S(=O)(=O)c2ccc(C(F)(F)F)cc2)cc1 [Example 209, dihydrochloride]" reading="> 1000 nM"
molecule="CCCc1ccc(CNC(=O)[C@H]2CN(C(C)=O)CCN2S(=O)(=O)c2ccc(OC(F)(F)F)cc2)cc1 [Example 450]" reading="< 100 nM"
molecule="CC(C)c1ccc(CNC(=O)[C@H]2CN(C(=O)Nc3ccncc3)CCN2S(=O)(=O)c2ccc(C(F)(F)F)cc2)cc1 [Example 3]" reading="< 100 nM"
